SYSTEM: glycoprotein IIb IIIa (GP IIb IIIa), purified from outdated human platelets (human) (UniProt P08514)
PROTOCOL: Fg/GP IIb-IIIa solid phase ELISA
ENDPOINT: pIC50
The quantity pIC50 is defined as the negative base-10 logarithm of the molar concentration.

Query block: Can you look up the measured pIC50 of `GRGDV` for me?
Result block: 7.32
